This collection of values is drawn from ChEMBL document CHEMBL5244205.

Assay: AUC (0 to 24 hrs) in Sprague-Dawley rat at 1 mg/kg, iv measured up to 24 hrs by LC-MS/MS analysis
Format: ADME, organism-based
Parameters: dose 1 mg/kg, time < 24 hrs, route iv
Details: in vivo

>  <Molecule>
C[C@@H]1CCN(C(=O)CC#N)C[C@@H]1n1c(=O)[nH]c2cnc3[nH]ccc3c21 (racemic)

>  <Value Units>
ng·h/mL

>  <AUC(0-t) at 24 h>
148

$$$$
>  <Molecule>
C[C@@H]1CCN(C(=O)CC#N)C[C@@H]1n1ccc2cnc3[nH]ccc3c21

>  <Value Units>
ng·h/mL

>  <AUC(0-t) at 24 h>
889

$$$$
>  <Molecule>
C[C@@H]1CCN(C(=O)CC#N)C[C@@H]1n1ccc2cnc3[nH]cc(C#N)c3c21

>  <Value Units>
ng·h/mL

>  <AUC(0-t) at 24 h>
1110

$$$$

* * *

Consider the following compounds and their measured half-life readings.
Assay: Half life in Sprague-Dawley rat at 1 mg/kg, po measured up to 24 hrs by LC-MS/MS analysis
Format: ADME, organism-based
Settings: in vivo
Measured Property: half-life (h)

>  <Compound>
C[C@@H]1CCN(C(=O)CC#N)C[C@@H]1n1c(=O)[nH]c2cnc3[nH]ccc3c21 (racemic)

>  <Test Result>
11.8

$$$$
>  <Compound>
C[C@@H]1CCN(C(=O)CC#N)C[C@@H]1n1ccc2cnc3[nH]cc(C#N)c3c21

>  <Test Result>
3.99

$$$$
>  <Compound>
C[C@@H]1CCN(C(=O)CC#N)C[C@@H]1n1ccc2cnc3[nH]ccc3c21

>  <Test Result>
2.58

$$$$

* * *

Consider the following molecules and their measured Cmax readings.
Experiment: Cmax in Sprague-Dawley rat at 1 mg/kg, po measured up to 24 hrs by LC-MS/MS analysis
Type: ADME, organism-based
Design: time < 24 hrs, dose 1 mg/kg, route po
Details: in vivo

>  <Molecule>
C[C@@H]1CCN(C(=O)CC#N)C[C@@H]1n1ccc2cnc3[nH]cc(C#N)c3c21

>  <Cmax / ng/mL>
178

$$$$
>  <Molecule>
C[C@@H]1CCN(C(=O)CC#N)C[C@@H]1n1ccc2cnc3[nH]ccc3c21

>  <Cmax / ng/mL>
260

$$$$
>  <Molecule>
C[C@@H]1CCN(C(=O)CC#N)C[C@@H]1n1c(=O)[nH]c2cnc3[nH]ccc3c21 (racemic)

>  <Cmax / ng/mL>
2.98

$$$$

* * *

Target: UniProtKB Q9UQB9
Sequence (Q9UQB9 whole entry): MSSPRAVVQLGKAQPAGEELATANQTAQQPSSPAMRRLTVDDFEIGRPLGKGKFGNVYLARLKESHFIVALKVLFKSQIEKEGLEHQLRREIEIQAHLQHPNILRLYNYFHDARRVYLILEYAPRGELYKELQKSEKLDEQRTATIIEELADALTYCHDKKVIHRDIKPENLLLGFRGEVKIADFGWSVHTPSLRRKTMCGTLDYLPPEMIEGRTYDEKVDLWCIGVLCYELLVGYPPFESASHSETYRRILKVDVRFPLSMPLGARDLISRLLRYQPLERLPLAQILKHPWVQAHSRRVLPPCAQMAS
Test: Inhibition of AURC (unknown origin)
pIC50: −log10 of the molar value.

>  <Compound>
C[C@@H]1CCN(C(=O)CC#N)C[C@@H]1n1ccc2cnc3[nH]ccc3c21

>  <Experimental System>
UniProtKB Q9UQB9

>  <pIC50>
< 6.00

$$$$

* * *

Data export: log10 of IC50 values recorded with Tyrosine-protein kinase JAK1 (Homo sapiens, UniProt P23458).
Sequence (P23458 whole entry): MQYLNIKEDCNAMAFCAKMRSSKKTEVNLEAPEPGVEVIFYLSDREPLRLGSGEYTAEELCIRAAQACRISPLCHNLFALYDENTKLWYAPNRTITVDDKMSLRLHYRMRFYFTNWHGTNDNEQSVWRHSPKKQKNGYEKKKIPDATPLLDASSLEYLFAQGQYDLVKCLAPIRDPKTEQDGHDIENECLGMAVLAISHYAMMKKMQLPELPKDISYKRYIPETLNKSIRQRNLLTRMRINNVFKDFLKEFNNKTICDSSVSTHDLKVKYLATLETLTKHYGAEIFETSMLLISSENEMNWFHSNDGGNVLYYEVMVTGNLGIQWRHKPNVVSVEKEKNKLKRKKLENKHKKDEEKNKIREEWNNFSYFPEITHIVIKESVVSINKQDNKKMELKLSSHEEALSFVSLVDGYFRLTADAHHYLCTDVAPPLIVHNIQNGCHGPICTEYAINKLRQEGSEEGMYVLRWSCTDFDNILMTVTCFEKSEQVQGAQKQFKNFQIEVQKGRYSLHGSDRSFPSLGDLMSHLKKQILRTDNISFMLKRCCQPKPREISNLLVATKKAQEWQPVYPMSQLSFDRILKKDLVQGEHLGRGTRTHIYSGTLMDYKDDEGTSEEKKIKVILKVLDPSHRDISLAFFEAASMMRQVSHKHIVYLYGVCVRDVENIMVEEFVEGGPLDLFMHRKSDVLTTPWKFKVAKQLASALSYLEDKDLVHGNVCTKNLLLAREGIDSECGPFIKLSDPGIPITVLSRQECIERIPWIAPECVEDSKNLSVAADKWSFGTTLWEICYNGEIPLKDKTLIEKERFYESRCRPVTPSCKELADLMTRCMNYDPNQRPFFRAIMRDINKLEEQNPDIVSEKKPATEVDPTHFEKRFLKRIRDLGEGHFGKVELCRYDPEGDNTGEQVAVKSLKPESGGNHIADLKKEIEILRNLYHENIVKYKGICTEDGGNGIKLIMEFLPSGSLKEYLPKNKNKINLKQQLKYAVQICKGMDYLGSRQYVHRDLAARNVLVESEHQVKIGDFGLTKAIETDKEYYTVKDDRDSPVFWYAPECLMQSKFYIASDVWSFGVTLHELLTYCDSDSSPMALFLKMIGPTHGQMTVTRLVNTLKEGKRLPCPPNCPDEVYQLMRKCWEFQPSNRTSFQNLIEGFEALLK
Measured Property: log10 of IC50 (log10 of the value in nM)

>  <Molecule>
C[C@@H]1CCN(C(=O)CC#N)C[C@@H]1n1ccc2cnc3[nH]ccc3c21 (racemic)

>  <Experimental System>
Tyrosine-protein kinase JAK1 (Homo sapiens, UniProt P23458)

>  <log10 of IC50>
0.04

$$$$
>  <Molecule>
C[C@@H]1CCN(c2ccc(C#N)cn2)C[C@@H]1n1c(=O)[nH]c2cnc3[nH]ccc3c21 (racemic)

>  <Experimental System>
Tyrosine-protein kinase JAK1 (Homo sapiens, UniProt P23458)

>  <log10 of IC50>
0.95

$$$$
>  <Molecule>
C[C@@H]1CCN(C(=O)C(C)(C)C#N)C[C@@H]1n1c(=O)[nH]c2cnc3[nH]ccc3c21 (racemic)

>  <Experimental System>
Tyrosine-protein kinase JAK1 (Homo sapiens, UniProt P23458)

>  <log10 of IC50>
1.76

$$$$
>  <Molecule>
C[C@@H]1CCN(C(=O)N2CCOCC2)C[C@@H]1n1c(=O)[nH]c2cnc3[nH]ccc3c21 (racemic)

>  <Experimental System>
Tyrosine-protein kinase JAK1 (Homo sapiens, UniProt P23458)

>  <log10 of IC50>
1.28

$$$$
>  <Molecule>
C[C@@H]1CCN(C(=O)CC#N)C[C@@H]1n1ncc2cnc3[nH]ccc3c21 (racemic)

>  <Experimental System>
Tyrosine-protein kinase JAK1 (Homo sapiens, UniProt P23458)

>  <log10 of IC50>
0.88

$$$$
>  <Molecule>
C[C@@H]1CCN(C(=O)Cn2cnnn2)C[C@@H]1n1c(=O)[nH]c2cnc3[nH]ccc3c21 (racemic)

>  <Experimental System>
Tyrosine-protein kinase JAK1 (Homo sapiens, UniProt P23458)

>  <log10 of IC50>
0.51

$$$$
>  <Molecule>
C[C@@H]1CCN(C(=O)CC#N)C[C@@H]1n1ccc2cnc3[nH]ccc3c21

>  <Experimental System>
Tyrosine-protein kinase JAK1 (Homo sapiens, UniProt P23458)

>  <log10 of IC50>
-0.34

$$$$
>  <Molecule>
Cc1cc2cnc3[nH]ccc3c2n1[C@H]1CN(C(=O)CC#N)CC[C@H]1C (racemic)

>  <Experimental System>
Tyrosine-protein kinase JAK1 (Homo sapiens, UniProt P23458)

>  <log10 of IC50>
-0.37

$$$$

* * *

Assay: cells
Settings: Rattus norvegicus, Lewis, Splenocyte, 72 h
Description: Immunosuppressive activity in Lewis rat splenocytes assessed as inhibition of concanavalin A-induced IL-2 receptor expression incubated for 3 days by alamarBlue assay
Measured Property: IC50 (nM)

>  <Compound>
C[C@@H]1CCN(C(=O)CC#N)C[C@@H]1n1ccc2cnc3[nH]ccc3c21

>  <Test Result>
4.3

$$$$

* * *

Biological target: Proto-oncogene tyrosine-protein kinase Src (Homo sapiens, UniProt P12931)
Sequence (P12931 2-536 limits assumed): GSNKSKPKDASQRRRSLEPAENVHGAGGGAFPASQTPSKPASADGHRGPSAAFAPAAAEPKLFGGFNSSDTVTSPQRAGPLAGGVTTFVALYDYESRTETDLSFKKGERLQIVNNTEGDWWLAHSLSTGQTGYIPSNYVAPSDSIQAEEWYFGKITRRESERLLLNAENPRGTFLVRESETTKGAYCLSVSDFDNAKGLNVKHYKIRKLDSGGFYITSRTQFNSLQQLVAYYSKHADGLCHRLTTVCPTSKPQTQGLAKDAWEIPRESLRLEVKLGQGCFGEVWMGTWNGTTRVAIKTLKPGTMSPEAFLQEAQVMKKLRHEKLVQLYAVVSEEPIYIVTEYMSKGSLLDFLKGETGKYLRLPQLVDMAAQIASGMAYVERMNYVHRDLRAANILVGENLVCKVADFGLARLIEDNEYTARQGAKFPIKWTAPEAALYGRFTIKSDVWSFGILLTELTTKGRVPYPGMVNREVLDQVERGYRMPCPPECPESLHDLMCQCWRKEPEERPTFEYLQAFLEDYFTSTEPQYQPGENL
Assay: Inhibition of SRC (unknown origin)

>  <Compound>
C[C@@H]1CCN(C(=O)CC#N)C[C@@H]1n1ccc2cnc3[nH]ccc3c21

>  <Experimental System>
Proto-oncogene tyrosine-protein kinase Src (Homo sapiens, UniProt P12931)

>  <IC50>
> 1 µM

$$$$

* * *

Target: Tyrosine-protein kinase JAK3 (Homo sapiens, UniProt P52333)
Sequence (P52333 whole entry): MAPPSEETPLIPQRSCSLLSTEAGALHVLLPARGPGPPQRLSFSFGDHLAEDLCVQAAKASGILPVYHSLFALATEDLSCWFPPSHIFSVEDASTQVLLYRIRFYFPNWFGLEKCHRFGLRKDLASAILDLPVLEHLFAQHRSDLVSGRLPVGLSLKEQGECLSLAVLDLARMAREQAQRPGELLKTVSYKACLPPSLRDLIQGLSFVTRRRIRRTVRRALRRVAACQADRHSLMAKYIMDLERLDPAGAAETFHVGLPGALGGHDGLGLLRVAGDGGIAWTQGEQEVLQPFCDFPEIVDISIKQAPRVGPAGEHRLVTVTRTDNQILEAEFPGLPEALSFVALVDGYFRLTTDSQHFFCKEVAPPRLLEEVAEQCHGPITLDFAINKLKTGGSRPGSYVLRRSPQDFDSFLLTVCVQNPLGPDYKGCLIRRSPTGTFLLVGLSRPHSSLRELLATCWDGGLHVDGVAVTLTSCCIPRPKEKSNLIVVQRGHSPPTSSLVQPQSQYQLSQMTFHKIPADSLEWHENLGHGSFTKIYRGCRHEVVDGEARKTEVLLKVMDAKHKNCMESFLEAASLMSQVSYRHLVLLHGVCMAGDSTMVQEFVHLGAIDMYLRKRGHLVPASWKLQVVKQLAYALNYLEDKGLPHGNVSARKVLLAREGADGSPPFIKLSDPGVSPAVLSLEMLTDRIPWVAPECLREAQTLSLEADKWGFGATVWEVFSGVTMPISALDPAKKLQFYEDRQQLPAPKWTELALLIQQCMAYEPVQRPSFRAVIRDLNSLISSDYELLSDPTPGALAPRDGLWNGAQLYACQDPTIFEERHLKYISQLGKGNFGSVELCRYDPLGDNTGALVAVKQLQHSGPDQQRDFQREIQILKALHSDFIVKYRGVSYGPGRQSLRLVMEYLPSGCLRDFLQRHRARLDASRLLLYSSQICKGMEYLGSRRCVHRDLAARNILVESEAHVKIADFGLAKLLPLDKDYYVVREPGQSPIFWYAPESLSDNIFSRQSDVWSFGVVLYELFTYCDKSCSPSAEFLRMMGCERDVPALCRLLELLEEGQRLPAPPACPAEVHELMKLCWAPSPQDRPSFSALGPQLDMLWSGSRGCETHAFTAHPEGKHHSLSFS
Consider the following compounds and their measured IC50 readings.
Measured Property: IC50 (nM)

>  <Compound>
C[C@@H]1CCN(C(=O)CC#N)C[C@@H]1n1ccc2cnc3[nH]ccc3c21 (racemic)

>  <Measured Property>
IC50

>  <Test Result>
0.44

$$$$
>  <Compound>
C[C@@H]1CCN(C(=O)CC#N)C[C@@H]1n1ccc2cnc3[nH]ccc3c21

>  <Measured Property>
IC50

>  <Test Result>
0.14

$$$$
>  <Compound>
C[C@@H]1CCN(C(=O)CC#N)C[C@@H]1n1ccc2cnc3[nH]cc(C#N)c3c21 (racemic)

>  <Measured Property>
IC50

>  <Test Result>
0.38

$$$$
>  <Compound>
C[C@@H]1CCN(C(=O)N2CCCCC2)C[C@@H]1n1c(=O)[nH]c2cnc3[nH]ccc3c21 (racemic)

>  <Measured Property>
IC50

>  <Test Result>
2.1

$$$$
